These measurements were taken from patent US12630520B2.

The molecules listed here are annotated with their Survival rates (%).
- System: HepG2 cells
- assay-remarks: Carbon tetrachloride (CCl4)-induced in vitro hepatocyte injury, MTT
- Assay type: cell-based, human
- test-conditions: HepG2, 10 μM, 0.6% CCl4, 24 h, MTT
Give the quantity in %, number only.

>  <molecule>
COC(=O)c1cc(OC)c2c(c1-c1c(CN3CCOCC3)cc(OC)c3c1OCO3)OCO2 [(+)IMM-H014]

>  <reading-unit>
%

>  <Survival rates (%)>
87.32

$$$$
>  <molecule>
COC(=O)c1cc(OC)c2c(c1-c1c(CN3CCOCC3)cc(OC)c3c1OCO3)OCO2 [(−)IMM-H014]

>  <reading-unit>
%

>  <Survival rates (%)>
104.44

$$$$
>  <molecule>
COC(=O)c1cc(OC)c2c(c1-c1c(CN3CCOCC3)cc(OC)c3c1OCO3)OCO2 (racemic) [(±)IMM-H014]

>  <reading-unit>
%

>  <Survival rates (%)>
92.09

$$$$

Now for the molecule whose Survival rates (%) we want.
I'd like to know its Survival rates (%). The molecule in question is `COC(=O)c1cc(OC)c2c(c1-c1c(CO)cc(OC)c3c1OCO3)OCO2` 89.47

* * *

- Test system: HepG2 cells
- assay-remarks: Carbon tetrachloride (CCl4)-induced in vitro hepatocyte injury, MTT
- Format: cell-based, human
- test-conditions: HepG2, 10 μM, 0.6% CCl4, versus model group
endpoint: Cell survival rate increase (%)
Write it as a number; the unit % goes unstated.

Recorded results for 3 compounds are shown here.
>  <compound>
COC(=O)c1cc(OC)c2c(c1-c1c(CN3CCOCC3)cc(OC)c3c1OCO3)OCO2 (racemic) [(±)IMM-H014]

>  <reading-unit>
%

>  <Cell survival rate increase (%)>
18.74

$$$$
>  <compound>
COC(=O)c1cc(OC)c2c(c1-c1c(CN3CCOCC3)cc(OC)c3c1OCO3)OCO2 [(−)IMM-H014]

>  <reading-unit>
%

>  <Cell survival rate increase (%)>
34.66

$$$$
>  <compound>
COC(=O)c1cc(OC)c2c(c1-c1c(CO)cc(OC)c3c1OCO3)OCO2 [Bicyclol]

>  <reading-unit>
%

>  <Cell survival rate increase (%)>
15.36

$$$$

Now consider a different compound.
Return reported Cell survival rate increase (%); argument: COC(=O)c1cc(OC)c2c(c1-c1c(CN3CCOCC3)cc(OC)c3c1OCO3)OCO2 [(+)IMM-H014] 12.59

* * *

- Tested on: HepG2 cells
- assay-remarks: 4-Acetamidophenol (APAP)-induced in vitro hepatocyte injury, MTT and LDH
- Format: cell-based, human
- test-conditions: HepG2, 10 μM, 8 mM APAP, 24 h, MTT
endpoint: Survival rates (%)
Answer with a number only, understood to be in %.

Example compounds with recorded Survival rates (%):
>  <compound>
COC(=O)c1cc(OC)c2c(c1-c1c(CO)cc(OC)c3c1OCO3)OCO2

>  <Survival rates (%)>
50.67

$$$$
>  <compound>
COC(=O)c1cc(OC)c2c(c1-c1c(CN3CCOCC3)cc(OC)c3c1OCO3)OCO2 (racemic) [(±)IMM-H014]

>  <Survival rates (%)>
50.63

$$$$
>  <compound>
COC(=O)c1cc(OC)c2c(c1-c1c(CN3CCOCC3)cc(OC)c3c1OCO3)OCO2 [(−)IMM-H014]

>  <Survival rates (%)>
67.01

$$$$

Moving on to the next compound.
Any idea what its Survival rates (%) is? The compound is COC(=O)c1cc(OC)c2c(c1-c1c(CN3CCOCC3)cc(OC)c3c1OCO3)OCO2 [(+)IMM-H014] 54.58
